Provide the recorded soluble fraction (log2) for the entries that follow.
assay: soluble fraction after stress (log2 fold change); higher = more stays soluble; pooled small domains, quantitative proteomics; settings: stress: 75 degC;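 further: 20 min heating vs room temperature control held 20 min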
Give your answer as a number; write no unit.

// query soluble fraction (log2) value for entry `HMGTYTSALDGIKGLGKKRKMLLLNTYKSIDVLKSVPLTELSQLIPREVAEALLTKLNRVDD` -1.18

What soluble fraction (log2) value was documented for this sequence, `HMQSNIHELQKKLNEALQALSEDHRAVVTMFDIQGMPHAEISKILGVSEGTVRSRLYYAHQQLQGHL` ? -1.11

Entry `HMDVTDRLARRLQGLRSAQGLSLDALAARSGVSRSNISLIERGQSSPTATVLDKLSAALGVTLAALFEEP` : reported soluble fraction (log2) = ? -1.04

Suppose we examine the sequence `HMQQGVEQLPVTEVGGRLMHYYEVQPKETLYSLSHKLGVGQEYIEQHNPSVRGGLRAFMTLYFPAA` ; what soluble fraction (log2) value has been reported? -0.00835

Dear colleague, I am looking for the recorded soluble fraction (log2) of the following sequence: `HMKAPLTFVIEGKEYEAFDQYKTGAELKQLAGIPLDTELFLSISKPYQDELIENEKQVNLARPETEYFFVK` 0.522

Item `HMAQQEMEIIPLRHRQVEQVMPTLRPLLEPGAALSGMNNQLILRASRKNREEIKQALAVIDT` has what recorded soluble fraction (log2)? 0.0427

For `HMKGEIEELLYEEVTKDNNTTFLRIYIKLNDEYNTLLNLGIIGIKTEEKVNELVNLGYKKVL` , what is its reported soluble fraction (log2)? -4.19

Can you share its soluble fraction (log2)? I mean this sequence: `HMNMNDIKFGKYLKRVRKKYNFSKEYVANILKVKESLVSDWESGRLTLNDEYMEKLSLFYGVNLYKK` -1.57

Which soluble fraction (log2) is listed for `HMYINVQNARTIASFRSSLWRMHRDFTNQGYITADGLKTFLEMGKLYEDAGGNDIYHSKLLPEITALEIKY` ? -2.84

I am curious: what soluble fraction (log2) value has been reported for `HMHDEKHHQLANEIARKWAALRGNRDFAAADELKNLAAEAGVELQATKQAVGQGALAKLKENFDPVKLEAL` ? 0.192

# query: soluble fraction (log2) of entry `HMDFSYTVGDIDEPIDSRGNSVIMLRKLAWGSNAEKLEIRRWIIDIDSERANKGVTFLTEEGPHNLVRV` 0.272

Given `HMNETRVDQAADLLLALLEKEPKSAAEILDEFEQAGFSKSGLYRAKDALGVVSIRKEGRWVWSLPHSLD` , state its recorded soluble fraction (log2). 0.438

Return reported soluble fraction (log2); argument: `HMNPETIHNDYKAFIKFAFSGLSYYSKVWNQNREMITPGLLETLWQKYRHLSIGEIETILEKIIKEG` -2.38

If you can, please state the reported soluble fraction (log2) value of `HMNMANFARIRLILELHDRGMSQDEISRSRHMSRSTITTVLRTARKKGITYAGIRKLDDAALQKLFFPDR` . -4.02

Can you share its soluble fraction (log2)? I mean this sequence: `HMELEKIRPDLDGLEIMAILGISPSPIVGRAYQYLLDLRMDRGPLGPDAAKAELLNWWSLNQPK` -1.66

Record request: soluble fraction (log2) value, item `HMGAVQFAEQKIHIGSRWIGKKISEFSAESDAFVILIKRGSEVVIPRGPTDIVENDVLVIHVPD` -3.05

Record request: soluble fraction (log2) value, item `HMDGRSLSHATLEEIRIRAVQRVEAGESPEVVVKALGFSRPRIYEWLALYREGGLEALRAKPV` -1.1

// data source = the domain aggregation screens of Martell et al. (2025)
